# Assayed target: glutathione S-transferase (GST-GSH binding)
# Protocol: GST–glutathione interaction disruption – biochemical, multiplex beads, flow cytometry, HPSMTB buffer, profiling panel (AID 1324);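 further: glutathione beads loaded with GST-green fluorescent protein and no fluorescent Bim peptide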
# Conditions: multiplex bead flow cytometry, MCF, active compounds read high, concentration not given here
Active and inactive are the calls of the source. How the calls were made is not given here.
Quantity: percent span inhibition

Before answering, review these 5 worked examples.
- Molecule: "Cc1cc(C)cc(NS(=O)(=O)c2ccc3c(c2)c(=O)n(C)c(=O)n3C)c1"
  percent span inhibition: "inactive"
- Molecule: "Cc1nnc(Sc2cc(NCCO)c([N+](=O)[O-])c3nonc23)s1"
  percent span inhibition: "inactive"
- Molecule: "COC(=O)c1c(C(=O)OC)c2cccc3cc(-c4ccccc4)c4ccc1c4n32"
  percent span inhibition: "inactive"
- Molecule: "O=C(NC1=C(Nc2ccc(Cl)cc2)C(=O)c2ccccc2C1=O)c1ccccc1"
  percent span inhibition: "inactive"
- Molecule: "S=c1[nH]cc(-c2ccccc2)n1-c1ccccc1"
  percent span inhibition: "inactive"

State recorded percent span inhibition for all listed molecules.
1. O=C(O)CC/C(=C\c1cc([N+](=O)[O-])ccc1Cl)c1nc2ccccc2s1
2. COc1cccc2c(SCC(=O)N/N=C/c3ccc(O)c(O)c3)cc(C)nc12
3. O=[N+]([O-])c1ccc(-c2cn(-c3ccc(Cl)cc3)c(=S)[nH]2)cc1
4. Cc1ccc(S(=O)(=O)NC(=O)COc2ccccc2C)cc1
5. CCc1nn2cc(C(=O)c3cc(C)ccc3O)cnc2c1-c1ccc(F)cc1
6. Fc1ccc(Cn2nnnc2C(c2ccc(Cl)cc2)N2CCSCC2)cc1 (stereo not drawn)
7. COc1ccc(C(=O)/C=C/c2cc(OC)c(O)c(OC)c2)c(F)c1
8. Cc1cnnn1-c1ccc(C(=O)CCl)cc1

Result:
["inactive", "inactive", "inactive", "inactive", "inactive", "inactive", "inactive", "inactive"]

====

# Assayed target: glutathione S-transferase (GST-GSH binding)
# Protocol: GST–glutathione interaction disruption – biochemical, multiplex beads, flow cytometry, HPSMTB buffer, profiling panel (AID 1324);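 further: glutathione beads loaded with GST-green fluorescent protein and no fluorescent Bim peptide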
# Conditions: multiplex bead flow cytometry, MCF
The source made the active and inactive calls. No rule for the calls is given here.
Output constraint: value belongs to yes (1) (active), no (0) (inactive)

These solved cases illustrate the format of a correct answer.
- Smiles data: "CN1CCN(c2ccc(N)cc2)CC1"
  Assayed target: "glutathione S-transferase (GST-GSH binding)"
  Class assignment: "no (0)"
- Smiles data: "Cc1cccc(N=C2NC(=O)/C(=C/C=C/c3ccco3)S2)c1C"
  Assayed target: "glutathione S-transferase (GST-GSH binding)"
  Class assignment: "no (0)"
- Smiles data: "COCCCNc1nc(=S)[nH]c2cc(OC)c(OC)cc12"
  Assayed target: "glutathione S-transferase (GST-GSH binding)"
  Class assignment: "yes (1)"
- Smiles data: "c1ccc(Nc2cccc(Nc3ccccc3)n2)cc1"
  Assayed target: "glutathione S-transferase (GST-GSH binding)"
  Class assignment: "no (0)"
- Smiles data: "CCOC(=O)c1c2c3c(c(Cl)ccc3[nH]c1=O)C(=O)c1ccccc1-2"
  Assayed target: "glutathione S-transferase (GST-GSH binding)"
  Class assignment: "yes (1)"

Continue with the compound presented below.
Q: How was `COC(=O)c1sc2nc[nH]c(=O)c2c1C` classified in this test?
Result: no (0)

====

# Assayed target: glutathione S-transferase (GST-GSH binding)
# Protocol: GST–glutathione interaction disruption – biochemical, multiplex beads, flow cytometry, HPSMTB buffer, profiling panel (AID 1324);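 further: glutathione beads loaded with GST-green fluorescent protein and no fluorescent Bim peptide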
# Conditions: multiplex bead flow cytometry, MCF, active compounds read high, concentration not given here
Active and inactive are the calls of the source. No rule for the calls is given here.
Quantity: percent span inhibition

In the examples that follow, each entry is paired with its recorded percent span inhibition.
- Molecule: "CCOC(=O)C1=C(CC)Nc2ccccc2N=C1NC(=O)c1ccc(S(=O)(=O)N2CCOCC2)cc1"
  percent span inhibition: "inactive"
- Molecule: "CC(C)Cc1cc(-c2ccco2)c(C#N)c(N)n1"
  percent span inhibition: "inactive"
- Molecule: "CCC(CC)C(=O)Nc1cccc(S(=O)(=O)c2cccc(NC(=O)C(CC)CC)c2)c1"
  percent span inhibition: "inactive"
- Molecule: "O=C(Nc1nccs1)c1ccc(COc2ccc(F)cc2)o1"
  percent span inhibition: "inactive"

The record that follows has no percent span inhibition shown yet.
Q: Form field: reported percent span inhibition of CC(NC(=O)Nc1ccccn1)N1C(=O)C2C3C=CC(C3)C2C1=O (stereo not given)
Result: inactive
